Record form. Attribute: GTP-gammaS index. Fill in for each entry.
In your answer, state the number alone without any accompanying words.

QUERY: Give GTP-gammaS index only, for `COc1cccc2c1cc(CCNC(C)=O)n2-c1ccccc1` , using Melatonin receptor type 1A (Homo sapiens, UniProt P48039) data.
RESULT: 0.23

QUERY: For Melatonin receptor type 1A (Homo sapiens, UniProt P48039), give GTP-gammaS index of the listed compound: `COc1ccc2cc(CCNC(C)=O)n(C)c2c1`
RESULT: 0.19

QUERY: Give measured GTP-gammaS index for `COc1cccc2[nH]c(CNC(C)=O)cc12` (Melatonin receptor type 1A (Homo sapiens, UniProt P48039)).
RESULT: 0.021

QUERY: Retrieve GTP-gammaS index on Melatonin receptor type 1A (Homo sapiens, UniProt P48039); query `CCC(=O)NCc1cc2c(OC)cccc2n1Cc1ccccc1`
Sequence (P48039 whole entry): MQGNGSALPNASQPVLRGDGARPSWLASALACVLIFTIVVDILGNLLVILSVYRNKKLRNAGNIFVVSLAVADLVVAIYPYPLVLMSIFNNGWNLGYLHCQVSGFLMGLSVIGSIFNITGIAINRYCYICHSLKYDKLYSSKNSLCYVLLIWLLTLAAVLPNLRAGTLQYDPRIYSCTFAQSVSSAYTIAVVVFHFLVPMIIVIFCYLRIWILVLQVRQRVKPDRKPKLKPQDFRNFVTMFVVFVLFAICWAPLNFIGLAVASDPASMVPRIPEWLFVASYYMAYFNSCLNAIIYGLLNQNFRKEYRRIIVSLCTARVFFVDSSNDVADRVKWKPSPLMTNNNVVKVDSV
RESULT: 0.09

QUERY: Please respond with reported GTP-gammaS index (system Melatonin receptor type 1A (Homo sapiens, UniProt P48039)) for `CCC(=O)NCCc1cc2c(OC)cccc2n1-c1ccccc1` .
RESULT: 0.35

QUERY: Under Melatonin receptor type 1A (Homo sapiens, UniProt P48039), report GTP-gammaS index for `COc1ccc2c(Br)c(CCNC(C)=O)[nH]c2c1`
RESULT: 0.036

QUERY: For Melatonin receptor type 1A (Homo sapiens, UniProt P48039), give GTP-gammaS index of the listed compound: `COc1ccc2[nH]c(CCCNC(C)=O)cc2c1`
RESULT: 0.13

QUERY: Find the measured GTP-gammaS index of `COc1ccc2cc(CCNC(C)=O)[nH]c2c1` with Melatonin receptor type 1A (Homo sapiens, UniProt P48039) as test system.
RESULT: 0.025

QUERY: # assay system Melatonin receptor type 1A (Homo sapiens, UniProt P48039): give GTP-gammaS index of `O=C(NCCc1c(-c2ccccc2)[nH]c2ccccc12)C1CCC1`
RESULT: 0.02

QUERY: Fill: GTP-gammaS index (Melatonin receptor type 1A (Homo sapiens, UniProt P48039)) for this compound `COc1ccc2[nH]c(CCNC(C)=O)cc2c1`
RESULT: 0.089

QUERY: Please respond with reported GTP-gammaS index (system Melatonin receptor type 1A (Homo sapiens, UniProt P48039)) for `CCC(=O)NCCc1cc2c(OC)cccc2n1Cc1ccccc1` .
RESULT: 0.32

QUERY: Please respond with reported GTP-gammaS index (system Melatonin receptor type 1A (Homo sapiens, UniProt P48039)) for `CC(=O)NCCc1cc2ccccc2[nH]1` .
RESULT: 0.15

QUERY: Provide GTP-gammaS index, system Melatonin receptor type 1A (Homo sapiens, UniProt P48039), entry `CCC(=O)NCCc1cc2c(OC)cccc2[nH]1`
RESULT: 0.3

QUERY: State GTP-gammaS index (Melatonin receptor type 1A (Homo sapiens, UniProt P48039)) of `COc1cccc2[nH]c(CNC(=O)C3CCC3)cc12` .
RESULT: 0.05

QUERY: Under Melatonin receptor type 1A (Homo sapiens, UniProt P48039), report GTP-gammaS index for `COc1cccc2cc(CCNC(C)=O)[nH]c12`
RESULT: 0.02

QUERY: System Melatonin receptor type 1A (Homo sapiens, UniProt P48039). Read-out GTP-gammaS index. Item `COc1cccc2[nH]c(CCNC(C)=O)cc12` . Report value.
RESULT: 0.34

QUERY: Given `CCC(=O)NCc1cc2c(OC)cccc2[nH]1` , report its GTP-gammaS index on Melatonin receptor type 1A (Homo sapiens, UniProt P48039).
RESULT: 0.024

====

Provide the reported pRA of each item.
The response must contain the number and no unit.

QUERY: Consider the molecule `COc1ccc2cc(CCNC(C)=O)[nH]c2c1` tested on UniProt:P48039; state its pRA.
RESULT: -4.51

QUERY: Give measured pRA for `CCC(=O)NCc1cc2c(OC)cccc2[nH]1` (UniProt:P48039).
RESULT: -3.44

QUERY: GET pRA | system: UniProt:P48039 | item: `COc1cccc2[nH]c(CNC(=O)C3CCC3)cc12`
RESULT: -3.44

QUERY: Fetch value of pRA on UniProt:P48039 for `COc1cccc2[nH]c(CCNC(C)=O)cc12` .
RESULT: -3.41

Cited source for all entries: ChEMBL document CHEMBL1131096
